# Test system: MCF7 breast
# Method summary: NCI tumour cell line growth inhibition, 48 h; in the data active means GI50 below about 0.43 µM; inactive means the rest
Labels: active, inactive

Compound | Class label
N#CC1=C(N)OC2=C(CCOc3c2ccc2ccccc32)C1c1ccc(Br)cc1 (stereo not given) | inactive
O=C(Oc1c(Cl)cc(Cl)cc1Cl)c1ccccc1Nc1ccnc(C(F)(F)F)c1 | inactive
COc1cc(-c2ccc[nH]2)[nH]c1/C=C1\N=C(C)C(CC(=O)OCC(C)(C)C)=C1C | active
Cc1ccc(-c2nc3sc(C)cn3c2/C=C2\C(=O)Nc3ccc(Cl)cc32)cc1 | inactive
CC12O[C@H](C[C@@H](OC(=O)CCC(=O)O)[C@H]1O)n1c3ccccc3c3c4c(c5c6ccccc6n2c5c31)C(=O)NC4=O | inactive

* * *

# Tested on: CAKI-1 renal
# Method summary: NCI tumour cell line growth inhibition, 48 h; in the data active = GI50 below about 0.43 µM; inactive = the rest
Labels: 1.0 = active, 0.0 = inactive

Compound | Test system | Class label
C[C@]12CCC(=O)C[C@@H]1CC[C@@H]1[C@@H]2CC[C@]2(C)[C@@H](OC(=O)N(CCCl)N=O)CC[C@@H]12 | CAKI-1 renal | 0.0
Oc1[nH]c2ccccc2c1C=Nc1ccc(-n2cncn2)cc1 | CAKI-1 renal | 0.0
CN(CCCCCl)P(=O)(OCc1ccc([N+](=O)[O-])o1)OCC1OC(n2cc([N+](=O)[O-])c(=O)[nH]c2=O)CC1O (stereo not given) | CAKI-1 renal | 0.0
COc1ccc([I+]c2ccc(OC)cc2)cc1 | CAKI-1 renal | 0.0
CC/C=C\C[C@H]1C/C=C2/C(=O)C(Cl)=C[C@@H]2C/C=C\CCCC(=O)O1 | CAKI-1 renal | 0.0
CCN1C(=O)N(CC)C2C1N=C(SC)N2/N=C/C=C/c1ccccc1OC (stereo not given) | CAKI-1 renal | 0.0
O=C(C(=CN1CCN(C(=O)c2ccco2)C1=S)C(=O)c1ccccc1)c1ccccc1 | CAKI-1 renal | 0.0
CCC(=O)Nc1nnc(Cc2ccc(OC)c(OC)c2)s1 | CAKI-1 renal | 0.0
COc1ccc2nc3ccccc3c(NCCNCC(C)O)c2c1 (stereo not given) | CAKI-1 renal | 0.0
S=C(SSC(=S)N1CCCCC1)N1CCCCC1 | CAKI-1 renal | 0.0
COC(=O)CC1=C(C)/C(=C/c2[nH]c(-c3ccc[nH]3)cc2OC)N=C1C | CAKI-1 renal | 1.0
COc1cnccc1Nc1nc(-c2nn(Cc3c(F)cc(OCCO)cc3F)c3ccccc23)ncc1OC | CAKI-1 renal | 0.0
CC1=C[C@@H]2c3c(c(O)c(O)c4oc5cc(O)cc(O)c5c(=O)c34)[C@@H](c3cc(O)c(O)c4oc5cc(O)cc(O)c5c(=O)c34)[C@@H]2C(C)(C)C1 | CAKI-1 renal | 0.0
COc1cc(C(=O)n2nc(N)c3c(C)cc(C)nc32)cc(OC)c1OC | CAKI-1 renal | 0.0
CSc1ccc(C(=O)/C=C/c2ccc(Cl)cc2Cl)cc1 | CAKI-1 renal | 0.0
COc1cc(-c2ccc[nH]2)[nH]c1/C=C1\N=C(C)C(CC(=O)OCC(C)(C)C)=C1C | CAKI-1 renal | 1.0
COc1cc(C(=O)O[C@H](C(=O)NCCCCNC(=O)[C@@H](OC(=O)c2cc(OC)cc3c(C)cccc23)[C@]2(C)CO2)[C@]2(C)CO2)c2cccc(C)c2c1 | CAKI-1 renal | 1.0
COC(=O)c1cc2cc(/C=C3/SC(=S)N(N(C(C)=O)C(C)=O)C3=O)oc2n1Cc1ccccc1 | CAKI-1 renal | 0.0
CC(C)(C)[Si](C)(C)OC1[C@@H](COC(=O)NC(=O)CCl)O[C@@H](n2cnc3c(N)ncnc32)[C@H]1O[Si](C)(C)C(C)(C)C (stereo not given in full) | CAKI-1 renal | 0.0
CC(=O)[CH-]C(=O)c1ccccc1.CC(=O)[CH-]C(=O)c1ccccc1.CC(=O)[CH-]C(=O)c1ccccc1.[Ga+3] | CAKI-1 renal | 0.0
